# subject.of.test: T1, Anti-CD28 Fab (SEQ ID NOs: 696, 697)
# T1 construct: In the phage ELISA the Fab was biotinylated and captured on neutravidin coated plates
# assay.explanation: phage binding ELISA on captured Fab; CD28 antigen as competitor
# binarize Anti-CD28 Fab signal in the presence of CD28: threshold 0.07 inclusive, high side Condition met, low side Condition not met

Solved cases (5 shown):
INSERT INTO results (binder, class_label) VALUES
  ('PCAAGAHYVWPVCF (tested as crude phage supernatant) [Phage-1668]', 'Condition not met'),
  ('LCDQFFHYNWPACL (tested as crude phage supernatant) [Phage-1662]', 'Condition not met'),
  ('SCAAGAHWSWPACL (tested as crude phage supernatant) [Phage-1670]', 'Condition not met'),
  ('SCTAVFSYALSPCF (tested as crude phage supernatant) [Phage-1666]', 'Condition not met'),
  ('SCAAGASYSWPLCF (tested as crude phage supernatant) [Phage-1672]', 'Condition met');

Problem: Determine whether this binder has Anti-CD28 Fab signal in the presence of CD28 no lower than 0.07: TCSAGAHYPWPMCL (tested as crude phage supernatant) [Phage-1674]
Result: Condition not met

Problem: Determine whether this binder has Anti-CD28 Fab signal in the presence of CD28 no lower than 0.07: MCAAGAMYNWPLCL (tested as crude phage supernatant) [Phage-1671]
Result: Condition met

Problem: Determine whether this binder has Anti-CD28 Fab signal in the presence of CD28 no lower than 0.07: WCSEVFSYPWPACL (tested as crude phage supernatant) [Phage-1665]
Result: Condition not met
